Experimental system: Androgen receptor (Homo sapiens)
Assay details: qHTS assay to identify small molecule agonists of the androgen receptor (AR) signaling pathway in the presence of an antagonist (AID 1259381); further: nearly all actives have a fitted effect of over 15% in size; further: potency means the concentration at half of the fitted maximal effect
Test conditions: MDA-kb2 MMTV-luciferase, AR agonist + nilutamide, 16 h; series mostly up to 92.4 µM
From the text: National Center for Advancing Translational Sciences [NCATS] NIH Chemical Genomics Center [NCGC] U.S. Environmental Protection Agency [EPA] National Institutes of Environmental Health Sciences [NIEHS] National Toxicology Program [NTP] Assay overview: Androgen receptor (AR) is an important member of nuclear receptor family. Its signaling plays a critical role in AR-dependent prostate cancer and other androgen related diseases. […]
Activity calls are given as the source filed them. The call rests on the fitted dose curve.
Metric name: Potency

{"Compound": "CCN(CC)c1c([N+](=O)[O-])cc(C(F)(F)F)c(N)c1[N+](=O)[O-]", "Reported": "inactive"}
{"Compound": "[CH3][Hg][Cl]", "Reported": "inactive"}
{"Compound": "Oc1c(Cl)c(Cl)cc(Cl)c1Cl", "Reported": "inactive"}
{"Compound": "COP(=O)(CCC(=O)NCO)OC", "Reported": "inactive"}
{"Compound": "CCSC(C)CC1CC(=O)C(/C(CC)=N/OC/C=C/Cl)=C(O)C1 (stereo not drawn)", "Reported": "inactive"}
{"Compound": "COC(=O)N(C(=O)N1COC2(C(=O)OC)Cc3cc(Cl)ccc3C2=N1)c1ccc(OC(F)(F)F)cc1 (stereo not drawn)", "Reported": "inactive"}
{"Compound": "CC(C)CBr", "Reported": "0.386 µM (active)"}
{"Compound": "O=c1c(C2CC(c3ccc(-c4ccc(Br)cc4)cc3)Cc3ccccc32)c(O)sc2ccccc12 (stereo not drawn)", "Reported": "inactive"}
{"Compound": "Nc1ccc([N+](=O)[O-])cc1Cl", "Reported": "inactive"}
{"Compound": "N#CC(Cl)Cl", "Reported": "47.3 µM (active)"}
{"Compound": "COS(=O)(=O)c1ccc(C)cc1", "Reported": "inactive"}
{"Compound": "FC(Cl)(Cl)Cl", "Reported": "inactive"}
{"Compound": "Cc1cccc(OP(=O)(Oc2cccc(C)c2)Oc2cccc(C)c2)c1", "Reported": "inactive"}
